molecular target: human V1a receptor (Homo sapiens, UniProt P37288); construct: expressed in transfected cells; host or cells: CHO K1 (ATCC), also stably transfected with a modified aequorin; test: Cellular in vitro assay for determining vasopressin receptor activity (V1a, aequorin luminescence); format: cell-based; settings: selectivity ratio of IC50 hV2 to IC50 hV1a
Sequence (P37288 whole entry): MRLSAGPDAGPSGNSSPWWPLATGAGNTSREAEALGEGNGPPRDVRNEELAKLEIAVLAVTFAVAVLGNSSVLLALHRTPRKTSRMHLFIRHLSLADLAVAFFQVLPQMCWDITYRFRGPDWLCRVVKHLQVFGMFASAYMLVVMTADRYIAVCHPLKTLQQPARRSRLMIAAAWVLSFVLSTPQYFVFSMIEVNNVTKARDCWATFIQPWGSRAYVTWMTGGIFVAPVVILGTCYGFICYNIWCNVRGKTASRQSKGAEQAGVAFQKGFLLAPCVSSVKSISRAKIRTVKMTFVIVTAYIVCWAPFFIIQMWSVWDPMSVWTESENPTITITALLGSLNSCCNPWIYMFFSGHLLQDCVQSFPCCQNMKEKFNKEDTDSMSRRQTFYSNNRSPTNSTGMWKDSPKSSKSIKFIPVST
property.label: ratio IC50 hV2/hV1a

CC(=O)NC(C)c1nc(Cn2nc(-c3ccc(Cl)cc3)n(C[C@H](O)C(F)(F)F)c2=O)nn1-c1ncccc1Cl (single isomer, unassigned) [Example 108] :: 11.5

[I] NC(=O)OCc1nc(Cn2nc(-c3ccc(Cl)cc3)n(C[C@H](OC(N)=O)C(F)(F)F)c2=O)nn1-c1ccccc1Cl [Example 29]
[II] NC(=O)OCc1nc(Cn2nc(-c3ccc(Cl)cc3)n(C[C@H](OC(N)=O)C(F)(F)F)c2=O)nn1-c1cccc(Cl)c1 [Example 25]
Q) Which has the higher ratio IC50 hV2/hV1a, I or II ? Could you answer with the label of the item you picked?
A) I

---

molecular target: human V1a receptor (Homo sapiens, UniProt P37288); construct: expressed in transfected cells; host or cells: CHO K1 (ATCC), also stably transfected with a modified aequorin; assay: Cellular in vitro assay for determining vasopressin receptor activity (V1a, aequorin luminescence); format: cell-based; details: selectivity ratio of IC50 hV2 to IC50 hV1a
property.label: ratio IC50 hV2/hV1a

Solved cases (5 shown):
C[C@H](OC(N)=O)c1nc(Cn2nc(-c3ccc(Cl)cc3)n(C[C@H](OC(N)=O)C(F)(F)F)c2=O)nn1-c1ccccc1Cl [Example 34] :: 4.3
CC(=O)NC(COC(C)(C)C)c1nc(Cn2nc(-c3ccc(Cl)cc3)n(C[C@H](O)C(F)(F)F)c2=O)nn1-c1ccccc1Cl (single isomer, unassigned) [Example 89] :: 37.4
NC(=O)OCc1nc(Cn2nc(-c3ccc(Cl)cc3)n(C[C@H](O)C(F)(F)F)c2=O)nn1-c1cccc(Cl)c1 [Example 24] :: 0.2
CN1C(=O)CCC1c1nc(Cn2nc(-c3ccc(Cl)cc3)n(C[C@H](O)C(F)(F)F)c2=O)nn1-c1ncccc1Cl (mixture of isomers) [Example 103] :: 18.3
CC(C)(C)OCC(N)c1nc(Cn2nc(-c3ccc(Cl)cc3)n(C[C@H](O)C(F)(F)F)c2=O)nn1-c1ccccc1Cl (mixture of isomers) [Example 80] :: 31.4

[a] C[C@H](OC(N)=O)c1nc(Cn2nc(-c3ccc(Cl)cc3)n(C[C@H](O)C(F)(F)F)c2=O)nn1-c1cnccc1Cl [Example 21]
[b] COC(=O)N[C@@H](C)c1nc(Cn2nc(-c3ccc(Cl)cc3)n(C[C@H](O)C(F)(F)F)c2=O)nn1-c1cccc(Cl)c1 [Example 58]
[c] CS(=O)(=O)NC(CO)c1nc(Cn2nc(-c3ccc(Cl)cc3)n(C[C@H](O)C(F)(F)F)c2=O)nn1-c1ccccc1Cl (mixture of isomers) [Example 85]
[d] C[C@@H](OC(N)=O)c1nc(Cn2nc(-c3ccc(Cl)cc3)n(C[C@H](O)C(F)(F)F)c2=O)nn1-c1ncccc1OC(F)(F)F [Example 23]
Q) Please list these molecules in decreasing order of ratio IC50 hV2/hV1a. Reply with the item labels sorted in the order that was asked for.
A) d, a, c, b
(d: 52.8, a: 9.2, c: 6.4, b: 0.1)

[a] CC(C)(C)OCC(NS(C)(=O)=O)c1nc(Cn2nc(-c3ccc(Cl)cc3)n(C[C@H](O)C(F)(F)F)c2=O)nn1-c1ccccc1Cl (single isomer, unassigned) [Example 84]
[b] CC(N)c1nc(Cn2nc(-c3ccc(Cl)cc3)n(C[C@H](O)C(F)(F)F)c2=O)nn1-c1ccccc1Cl (single isomer, unassigned) [Example 61]
Q) Which has the higher ratio IC50 hV2/hV1a, a or b ? Could you answer with the label of the item you picked?
A) a
(a: 9.4, b: 6.3)
